# Target Or Test System: HCV polymerase (NS5B570n-Con1) (Hepatitis C virus genotype 1b, UniProt Q9WMX2);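 further: recombinant His-tagged enzyme from E. coli, radiolabeled nucleotide incorporation into acid-insoluble RNA read by scintillation after filtration, no-enzyme background subtracted, activity relative to positive control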
# Construct: contains a 21 amino acid deletion at the C-terminus relative to the full-length HCV polymerase; 6-histidine (N); made in house; host or cells: E. coli strain BL21(DE) pLysS (pET17b)
# Assay Method Text: biochemical
# Design: species or system HCV Con1 strain
# Condition Context: IC50 HCV NS5B RNA Polymerase Assay, values without asterisk; 20 nM NS5B570n-Con1 enzyme, 20 nM cIRES RNA template
pIC50: −log10 of the molar value.
# reported pIC50; entries follow
Observation Type: pIC50

> print(dat)
                                   compound  quantitative.readout
1  COc1c(C(=O)Nc2ccccc2C)cc(-c2ccc[nH]c2=O)cc1C(C)(C)C [I-79]                  5.93
2  COc1c(/C=C/c2ccc(NS(C)(=O)=O)cc2CNC(C)=O)cc(-c2ccc[nH]c2=O)cc1C(C)(C)C [I-160]                  8.40
3  COc1c(CCc2ccc(NS(C)(=O)=O)cc2F)cc(-c2ccc[nH]c2=O)cc1C(C)(C)C [I-102]                  8.10
4  CC(C)(C)c1cc(CCc2ccc(NS(C)(=O)=O)cn2)c(O)c(-c2ccc[nH]c2=O)c1 [I-214]                  8.30
5  COCCOc1cc(NS(C)(=O)=O)ccc1C(=O)Nc1cc(-c2ccc[nH]c2=O)cc(C(C)(C)C)c1OC [I-276]                  7.70
6  COc1c(/C=C/c2ccc(NS(C)(=O)=O)cc2)cc(-c2ccc[nH]c2=O)cc1C(C)(O)C(F)(F)F (centres unmarked) [I-180]                  8.30
7  Cc1cc(C(C)(C)C)cc(-c2ccc[nH]c2=O)c1O [I-11]                  6.47
8  CC(C)(C)c1cc(Br)c(O)c(-c2ccc[nH]c2=O)c1 [I-13]                  6.44
